# test name: Cell viability for BIA and analogues, DU145 cell line
# Assay type: cell-based
# run parameters: human; DU145, 50 rpm
Counter-ions that a name gives are not always drawn.
Param label: returns YES when viability < 60%, returns NO otherwise, including exact equality.

1. COc1cccc(/C=C/C(=O)c2ccccc2N)c1 [GM-90131] | YES
2. CCOc1ccc([N+](=O)[O-])cc1C(O)CC(=O)c1ccccc1N (stereo not shown) [GM-90230] | YES
3. COc1cc(N)c(C(=O)/C=C/c2cccc(C#N)c2)cc1OC [GM-90319] | NO
4. Nc1ccccc1C(=O)/C=C/c1ccc2ccccc2c1 [GM-90225] | NO
5. CCOc1cccc(/C=C/C(=O)c2ccccc2N)c1 [GM-90295] | NO
6. Nc1ccccc1C(=O)/C=C/c1ccccc1 [GM-90130] | YES
7. O=C(/C=C/c1cccc([N+](=O)[O-])c1)c1ccccc1 [GM-90128] | NO
8. Nc1cccc(/C=C/C(=O)c2ccccc2N)c1 [GM-90315, Hydrochloride] | NO
9. Nc1ccccc1C(=O)/C=C/c1cccc(C(F)(F)F)c1 [GM-90283] | YES
